Taken from ChEMBL document CHEMBL5096239.

Target: UniProt:P0DTD1
Assay: Displacement of carboxyfluorescein-labelled bbc3-(dG)14 from SARS-CoV-2 Mac3 by fluorescence polarization analysis

| Molecule | Ki, µM |
| --- | --- |
| O=C(O)CCc1nc(-c2ccccc2)c(-c2ccccc2)o1 [OXAPROZIN] | 400 |
| Cc1ccc(Cl)c(Nc2ccccc2C(=O)O)c1Cl [MECLOFENAMIC ACID] | 50 |

---

UniProtKB P0DTD1: reported pKd for various compounds.
pKd: −log10 of the molar value.

| Compound | pKd |
| --- | --- |
| Cc1ccc(Cl)c(Nc2ccccc2C(=O)O)c1Cl [MECLOFENAMIC ACID] | 3.05 |
| O=C(O)CCc1nc(-c2ccccc2)c(-c2ccccc2)o1 [OXAPROZIN] | 2.92 |

---

Biological target: Replicase polyprotein 1a (Severe acute respiratory syndrome-related coronavirus, UniProt P0C6U8)

| Given smiles | Kd, µM |
| --- | --- |
| O=C(O)CCc1nc(-c2ccccc2)c(-c2ccccc2)o1 | 1000 |
| Cc1ccc(Cl)c(Nc2ccccc2C(=O)O)c1Cl | 220 |

---

Target: Replicase polyprotein 1ab (Severe acute respiratory syndrome coronavirus 2, UniProt P0DTD1)
Assay: Displacement of carboxyfluorescein-labelled p53-(dG)14 from SARS-CoV-2 Mac3 by fluorescence polarization analysis
Listed here are compounds together with their documented Ki.
Experimental readout: Ki (µM)

| Given smiles | Uom | Recorded value |
| --- | --- | --- |
| Cc1ccc(Cl)c(Nc2ccccc2C(=O)O)c1Cl | µM | 200 |
| O=C(O)CCc1nc(-c2ccccc2)c(-c2ccccc2)o1 | µM | 900 |
